Target: APE1 (Homo sapiens, UniProt P27695)
Sequence (P27695 whole entry): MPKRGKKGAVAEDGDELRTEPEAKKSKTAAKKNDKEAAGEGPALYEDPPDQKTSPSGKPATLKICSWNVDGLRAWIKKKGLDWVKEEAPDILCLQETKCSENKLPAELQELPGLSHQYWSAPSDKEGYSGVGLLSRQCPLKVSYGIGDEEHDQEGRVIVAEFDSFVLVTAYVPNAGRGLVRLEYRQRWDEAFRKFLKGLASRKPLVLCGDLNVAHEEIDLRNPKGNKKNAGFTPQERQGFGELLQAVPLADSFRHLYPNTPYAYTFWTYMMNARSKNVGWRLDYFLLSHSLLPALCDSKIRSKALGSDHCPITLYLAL
Assay: APE1 endonuclease activity: incision of depurinated plasmid (pUC18) DNA
Type: biochemical
Design: the full length APE1 protein was successfully expressed and purified; made in house; host or cells: E. coli BL21/DE3
measured_quantity: IC50 (µM)
Write down the numeric answer in µM and omit the unit.

### Prompt Give its IC50 value. Item: CCN(CC)CCNc1ccc(C)c2sc3ccccc3c(=O)c12 [lucanthone]
### Response 5

* * *

Target: APE1 (Homo sapiens, UniProt P27695)
Assay: Direct binding by surface plasmon resonance (BIACORE 2000), APE1 immobilized on CM5 chip
Parameters: the full length APE1 protein was successfully expressed and purified; made in house; host or cells: E. coli BL21/DE3
measured_quantity: pKd
Just so you know, pKd here is -log10 of the concentration in molar units; reply with that number alone.

### Prompt Give its pKd value. Item: CCN(CC)CCNc1ccc(C)c2sc3ccccc3c(=O)c12 [lucanthone]
### Response 7.05

* * *

Biological target: APE1 (Homo sapiens)
Experiment: APE1 endonuclease activity: incision of depurinated plasmid (pUC18) DNA
Type: biochemical
Set-up: the full length APE1 protein was successfully expressed and purified; made in house; host or cells: E. coli BL21/DE3
Settings: read-out: IC50 for inhibition of APE1 incision of depurinated plasmid DNA
Method: APE1 endonuclease activity was determined using an assay that measures the conversion of plasmid DNA from supercoiled to relaxed form by incision at an abasic site [35]–[36]. […] The gel was stained with ethidium bromide to visualize supercoiled and relaxed plasmid DNA and imaged with a digital imaging system and the area under the supercoiled and relaxed form was determined. […]
measured_quantity: IC50

### Prompt Give its IC50 value. Item: CCN(CC)CCNc1ccc(CO)c2sc3ccccc3c(=O)c12
### Response 80 nM

Origin of measurements: paper PMC3174134
